Target: CLK2 (Homo sapiens, UniProt P49760)
Sequence (P49760 whole entry): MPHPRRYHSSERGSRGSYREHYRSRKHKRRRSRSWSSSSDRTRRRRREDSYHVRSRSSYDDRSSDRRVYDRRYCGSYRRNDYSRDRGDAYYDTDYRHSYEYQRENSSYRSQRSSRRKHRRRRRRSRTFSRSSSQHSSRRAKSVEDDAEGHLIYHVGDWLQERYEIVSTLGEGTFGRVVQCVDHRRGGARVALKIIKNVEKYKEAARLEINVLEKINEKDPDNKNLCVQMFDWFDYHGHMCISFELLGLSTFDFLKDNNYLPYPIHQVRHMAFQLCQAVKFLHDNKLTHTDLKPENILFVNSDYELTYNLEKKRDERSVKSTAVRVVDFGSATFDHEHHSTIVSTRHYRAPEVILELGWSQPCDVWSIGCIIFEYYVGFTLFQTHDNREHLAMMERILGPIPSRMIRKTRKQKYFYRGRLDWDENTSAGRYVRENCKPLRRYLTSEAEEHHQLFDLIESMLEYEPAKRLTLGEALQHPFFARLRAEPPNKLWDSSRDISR
Experiment: In vitro kinase inhibition, ADP-Glo enzyme activity assay
Type: biochemical
Details: read-out: IC50 for CLK2

record-smiles: CC(C)C[C@H](N)COc1cncc(-c2ccc3[nH]nc(-c4nc(=O)c5ccccc5[nH]4)c3c2)c1
IC50, nM: 2

====

pIC50: −log10 of the molar value.
This section lists pIC50 readings for CLK4 (Homo sapiens, UniProt Q9HAZ1).

record-smiles: CC(C)C[C@H](N)COc1cncc(-c2ccc3[nH]nc(-c4nc(=O)c5ccncc5[nH]4)c3c2)c1
target-or-test-system: CLK4 (Homo sapiens, UniProt Q9HAZ1)
Sequence (Q9HAZ1 whole entry): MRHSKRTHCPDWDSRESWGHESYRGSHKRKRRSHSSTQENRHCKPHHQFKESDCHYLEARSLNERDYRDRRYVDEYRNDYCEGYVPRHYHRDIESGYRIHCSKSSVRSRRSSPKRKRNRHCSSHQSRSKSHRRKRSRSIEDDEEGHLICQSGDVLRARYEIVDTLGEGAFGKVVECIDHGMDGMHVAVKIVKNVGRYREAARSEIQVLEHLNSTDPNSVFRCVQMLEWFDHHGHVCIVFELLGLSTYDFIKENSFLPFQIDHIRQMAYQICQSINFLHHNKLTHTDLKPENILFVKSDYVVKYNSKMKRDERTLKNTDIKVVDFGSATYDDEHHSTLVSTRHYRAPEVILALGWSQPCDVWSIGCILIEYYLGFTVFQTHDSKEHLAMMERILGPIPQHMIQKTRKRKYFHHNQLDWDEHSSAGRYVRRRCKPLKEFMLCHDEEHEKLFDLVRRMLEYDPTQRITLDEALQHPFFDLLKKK
pIC50: 7.30 to 8.00
//
record-smiles: CC(C)CC(=O)Nc1cncc(-c2ccc3[nH]nc(-c4nc(=O)c5ccccc5[nH]4)c3c2)c1
target-or-test-system: CLK4 (Homo sapiens, UniProt Q9HAZ1)
pIC50: 7.00 to 7.30
//
record-smiles: CN1CCN(Cc2cncc(-c3ccc4[nH]nc(-c5nc(=O)c6ccccc6[nH]5)c4c3)c2)CC1
target-or-test-system: CLK4 (Homo sapiens, UniProt Q9HAZ1)
pIC50: 7.00 to 7.30
//
record-smiles: CC(C)CC(=O)Nc1cncc(-c2ccc3[nH]nc(-c4ccncc4)c3c2)c1
target-or-test-system: CLK4 (Homo sapiens, UniProt Q9HAZ1)
pIC50: > 8.00
//
record-smiles: CN(C)Cc1cncc(-c2ccc3[nH]nc(-c4nc(=O)c5ccccc5[nH]4)c3c2)c1
target-or-test-system: CLK4 (Homo sapiens, UniProt Q9HAZ1)
pIC50: < 7.00
//
record-smiles: O=c1nc(-c2n[nH]c3ccc(-c4cncc(NCC5CCCCC5)c4)cc23)[nH]c2ccccc12
target-or-test-system: CLK4 (Homo sapiens, UniProt Q9HAZ1)
pIC50: 7.30 to 8.00
//
record-smiles: CC(C)CC(=O)Nc1cncc(-c2ccc3[nH]nc(-c4ccc5ocnc5c4)c3c2)c1
target-or-test-system: CLK4 (Homo sapiens, UniProt Q9HAZ1)
pIC50: 7.30 to 8.00
